Data credit: patent US4457919A

Assay: Chemical stability at varying pH, conversion to NPT 15392 (HPLC)
Assay type: physicochemical
Details: pH 7.0; 3.5 hours incubation at 37° C.; 0.36 μm/ml
Entries annotated with measured degraded at 3.5 h, 360 µM
Write it as a number; the unit % goes unstated.

Look over these answered cases.
| compound | readout.unit | degraded at 3.5 h, 360 µM |
| --- | --- | --- |
| CCCCCC[C@H]([C@H](C)OC(C)=O)n1cnc2c(=O)[nH]cnc21 (relative stereo) [NPT 15458] | % | 0 |
| CCCCCC[C@H]([C@H](C)O)n1cnc2c(=O)[nH]cnc21 (relative stereo) [NPT 15392, reference compound] | % | 100 |

Turning to the following compound.
Incoming: degraded at 3.5 h, 360 µM lookup needed for CCCCCC[C@H]([C@H](C)OC(=O)CCC(=O)O)n1cnc2c(=O)[nH]cnc21 (relative stereo) [NPT 15457] , thanks.
Outgoing: 0

----------
Assay: Formation of NPT 15392 on incubation with Vero cells (HPLC)
Type: in vitro ADME, African Green Monkey
Settings: monkey, 24 hrs.
Known metabolised at 24 h of a selection of compounds
Numeric only. Scale: %

Below: 2 compounds and their reported metabolised at 24 h.
| compound | readout.unit | metabolised at 24 h |
| --- | --- | --- |
| CCCCCC[C@H]([C@H](C)O)n1cnc2c(=O)[nH]cnc21 (relative stereo) [NPT 15392, reference compound] | % | 100 |
| CCCCCC[C@H]([C@H](C)OC(C)=O)n1cnc2c(=O)[nH]cnc21 (relative stereo) [NPT 15458] | % | 50 |

Next:
Incoming: // query metabolised at 24 h value for entry CCCCCC[C@H]([C@H](C)OC(=O)CCC(=O)O)n1cnc2c(=O)[nH]cnc21 (relative stereo) [NPT 15457]
Outgoing: 0

----------
Test: Chemical stability at varying pH, conversion to NPT 15392 (HPLC)
Format: physicochemical
Conditions: pH 9.5; 3.5 hours incubation at 37° C.; 0.36 μm/ml
measurement.name: degraded at 3.5 h, 360 µM (%)
# value in %; strip the unit string

| molecule | value.reported |
| --- | --- |
| CCCCCC[C@H]([C@H](C)O)n1cnc2c(=O)[nH]cnc21 (relative stereo) [NPT 15392, reference compound] | 100 |
| CCCCCC[C@H]([C@H](C)OC(=O)CCC(=O)O)n1cnc2c(=O)[nH]cnc21 (relative stereo) | 8 |

Incoming: Quick one: degraded at 3.5 h, 360 µM for CCCCCC[C@H]([C@H](C)OC(C)=O)n1cnc2c(=O)[nH]cnc21 (relative stereo) ?
Outgoing: 28

----------
Below, each of the compounds is paired with its reported metabolised at 24 h value.
Experiment: Formation of NPT 15392 on incubation with human peripheral blood lymphocytes (HPLC)
Format: in vitro ADME
Settings: human, peripheral blood lymphocytes, HPBL, 24 hrs.; read-out: % of NPT 15392
Report the value in % with no unit label.

Here's what some known entries look like.
| compound | readout.unit | value.reported |
| --- | --- | --- |
| CCCCCC[C@H]([C@H](C)OC(=O)CCC(=O)O)n1cnc2c(=O)[nH]cnc21 (relative stereo) | % | 18.2 |
| CCCCCC[C@H]([C@H](C)O)n1cnc2c(=O)[nH]cnc21 (relative stereo) [NPT 15392, reference compound] | % | 100 |

Turning now to a further compound:
Incoming: Value lookup for metabolised at 24 h; key = CCCCCC[C@H]([C@H](C)OC(C)=O)n1cnc2c(=O)[nH]cnc21 (relative stereo)
Outgoing: 100
